System: Ovarian cancer SK-OV-3 cells
test_method_notes: Cancer cell viability assay with 3D cell colonies (CellTiter-Glo), SK-OV-3
Assay type: cell-based
particulars: SK-OV-3, 3D methylcellulose colonies, 7 days
pIC50: −log10 of the molar value.
property: pIC50

*Q* # query: pIC50 of entry N.N.[Cl][Pt][Cl] [Cisplatin, cisplatin]
*A* ≥ 5.00

---

System: IFN production in THP1 TREX1 KO cells
test_method_notes: Cellular assay for altering IFN production in THP1 TREX1 KO cells
Type: cell-based
particulars: Homo sapiens, THP-1, 120 h, inducers of IFN; in the presence of 1 μM 5-aza-2′-deoxycytidine, five days
pEC50: −log10 of the molar value.
property: pEC50

Examples with their reported pEC50 follow.
{"columns": ["compound", "pEC50"],
 "data": [
  ["C#C[C@]1(COP(=O)(O)N[C@@H](C)C(=O)OC(C)C)O[C@@H](n2cnc3c(N)nc(Cl)nc32)C[C@@H]1O", "5.00 to 6.00"],
  ["C#C[C@@]12COP(=O)(N[C@H](C)C(=O)OC(C)C)O[C@H]1C[C@H](n1cnc3c(N)nc(Cl)nc31)O2 (stereo partly shown)", "< 5.00"],
  ["C#C[C@]1(COP(=O)(O)N[C@H](C)C(=O)OC(C)C)O[C@@H](n2cnc3c(N)nc(Cl)nc32)C[C@@H]1O", "5.00 to 6.00"],
  ["C#C[C@]1(CO[P@@](=O)(N[C@@H](C)C(=O)OC(C)C)Oc2ccccc2)O[C@@H](n2cnc3c(N)nc(F)nc32)C[C@@H]1O", "< 5.00"],
  ["C#C[C@]1(CO[P@](=O)(N[C@@H](C)C(=O)OC(C)C)Oc2ccccc2)O[C@@H](n2cnc3c(N)nc(F)nc32)C[C@@H]1O", "> 6.00"]
]}

For each entry beneath this line, provide reported pEC50.
1. C#C[C@]1(COP(=O)(O)N[C@@H](C)C(=O)OC(C)C)O[C@@H](n2cnc3c(N)nc(F)nc32)C[C@@H]1O
2. C#C[C@]1(CO[P@@](=O)(N[C@@H](C)C(=O)OC(C)C)Oc2ccccc2)O[C@@H](n2cnc3c(N)nc(Cl)nc32)C[C@@H]1O

*A*
1: < 5.00; 2: 5.00 to 6.00
